- Target entity: T1, variant human BR3-Fc fusion
- T1 construct: produced in CHO cells; also called vBR3-Fc; vhBR3-Fc
- Test details: SPR, vBR3-Fc on chip;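 note: Anti-BR3 antibodies passed over chip-bound BR3-Fc in PBS with 0.05% polysorbate 20, on and off rates fitted together globally to a 1:1 binding model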
Experimental endpoint: koff (s⁻¹)
Numbers only here, please. The scale is s⁻¹.

[
  {
    "Binder": "Hu2.1-40L Fab (Fab, V domains shown, Fab) VH: EVQLVESGGGLVQPGGSLRLSCAASGDSITRGYWNWVRQAPGKGLEWVGYINYSGTTYYNPSLKSRFTISRDTSKNTLYLQMNSLRAEDTAVYYCATTLPYGAMDYWGQGTLVTVSS VL: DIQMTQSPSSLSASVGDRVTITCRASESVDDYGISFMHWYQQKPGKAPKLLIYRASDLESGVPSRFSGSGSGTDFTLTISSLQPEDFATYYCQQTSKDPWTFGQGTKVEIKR",
    "koff (s⁻¹)": 0.00121
  },
  {
    "Binder": "Hu2.1-46 IgG (antibody, V domains shown, humanized IgG; also called h2.1-46) VH: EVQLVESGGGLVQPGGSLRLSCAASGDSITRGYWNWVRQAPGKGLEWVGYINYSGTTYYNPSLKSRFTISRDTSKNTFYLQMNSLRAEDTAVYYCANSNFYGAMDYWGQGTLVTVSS VL: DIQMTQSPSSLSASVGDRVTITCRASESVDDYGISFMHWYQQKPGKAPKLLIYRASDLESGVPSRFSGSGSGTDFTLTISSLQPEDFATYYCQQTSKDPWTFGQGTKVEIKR",
    "koff (s⁻¹)": "3.96e-05"
  }
]

q: For the binder shown here, Hu2.1-RL Fab (Fab, V domains shown, Fab) VH: EVQLVESGGGLVQPGGSLRLSCAASGDSITRGYWNWVRQAPGKGLEWVGYINYSGTTYYNPSLKSRFTISRDTSKNTLYLQMNSLRAEDTAVYYCATPHTYGAMDYWGQGTLVTVSS VL: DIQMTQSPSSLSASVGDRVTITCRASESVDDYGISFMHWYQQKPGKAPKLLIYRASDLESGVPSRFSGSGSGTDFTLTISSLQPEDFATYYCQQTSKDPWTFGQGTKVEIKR , give the reported koff.
a: 0.00139

Where do the numbers come from? From patent US20100280227A1.
